# Emax per entry
- System Under Test: PKR(R510Q) (Homo sapiens, UniProt P30613, R510Q)
- Sequence (P30613 whole entry R510Q): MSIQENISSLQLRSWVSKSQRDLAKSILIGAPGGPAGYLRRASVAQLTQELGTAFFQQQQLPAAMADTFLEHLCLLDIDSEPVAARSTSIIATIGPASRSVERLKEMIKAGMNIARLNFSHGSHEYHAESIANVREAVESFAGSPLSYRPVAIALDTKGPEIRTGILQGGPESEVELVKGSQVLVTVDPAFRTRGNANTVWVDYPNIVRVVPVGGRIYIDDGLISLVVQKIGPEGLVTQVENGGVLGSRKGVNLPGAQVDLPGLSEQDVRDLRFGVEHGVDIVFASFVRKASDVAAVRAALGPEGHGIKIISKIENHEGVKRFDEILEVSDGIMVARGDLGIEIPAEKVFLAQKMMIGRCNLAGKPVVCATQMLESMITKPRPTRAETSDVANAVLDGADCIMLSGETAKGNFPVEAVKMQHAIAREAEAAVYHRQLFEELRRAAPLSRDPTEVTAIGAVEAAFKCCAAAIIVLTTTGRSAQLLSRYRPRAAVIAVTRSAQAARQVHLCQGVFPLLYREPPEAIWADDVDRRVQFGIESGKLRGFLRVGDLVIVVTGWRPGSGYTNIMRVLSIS
- Method Summary: Luminescence Biochemical Assay (Kinase Glo Plus), PKR R510Q mutant
- Condition: without FBP, read-out: AC50 LUM KGP woFBP MAX % FOLD mean

Using the record for Cc1cc(COC(=O)N2CC3=C(C2)CN(S(=O)(=O)c2ccc(OC(F)F)cc2)C3)no1 [Example 22-5] , report its Emax.
250 to 500%

Consider the molecule Cc1cc(CNC(=O)N2CC3=C(C2)CN(S(=O)(=O)c2ccccn2)C3)no1 [Example 21-43] and give its measured Emax.
250 to 500%

Find the recorded Emax belonging to O=C([C@H](O)c1ccc(F)cc1)N1CC2=C(C1)CN(S(=O)(=O)c1ccccn1)C2 [Example 18-63] and report it.
250 to 500%

Returns the measured Emax for the input molecule. Input: O=C([C@H](O)c1ccc(F)cc1)N1CC2=C(C1)CN(S(=O)(=O)c1ccc(OC(F)F)cc1)C2 [Example 18-31]
250 to 500%
